IC50 listing for selected compounds.
test_target: recombinant P300 bromodomain (Homo sapiens, UniProt Q09472)
Construct: recombinant P300 bromodomain obtained from BPS Bioscience, USA
test_summary: P300 TR-FRET displacement assay
condition: dose-response, read-out: IC50 (group A, B, C)

COc1cc(N2CCN(C)c3cc(C(=O)O)c(C#N)cc32)c2cc(C)c(=O)n(C)c2c1; 25 to 50 nM

Next, consider the following compound.
Query string: Given "COc1cc(N2CCN(C3CC3)c3cc(N4CCN(C)CC4)c(C#N)cc32)c2cc(C)c(=O)n(C)c2c1" , state its recorded IC50.
Result string: 25 to 50 nM

* * *

test_target: recombinant CREBBP bromodomain (Homo sapiens, UniProt Q92793)
Construct: recombinant CREBBP bromodomain obtained from BPS Bioscience, USA
Sequence (Q92793 1085-1192 limits assumed): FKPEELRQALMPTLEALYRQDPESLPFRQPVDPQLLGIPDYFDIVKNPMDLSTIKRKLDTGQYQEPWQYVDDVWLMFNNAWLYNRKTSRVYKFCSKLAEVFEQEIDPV
test_summary: CBP TR-FRET displacement assay
condition: dose-response, read-out: IC50 (group A, B, C)
IC50 listing for selected molecules.

Query string: Given Cc1cc2c(N3CCN(C)c4cc(-c5cnn(C)c5)ncc43)nc(N3C4CCC3COC4)cc2n(C)c1=O [Example 221] , state its recorded IC50.
Result string: > 10 nM

* * *

test_target: recombinant CREBBP bromodomain (Homo sapiens, UniProt Q92793)
Construct: recombinant CREBBP bromodomain obtained from BPS Bioscience, USA; purchased BPS Bioscience, USA
test_summary: CBP TR-FRET displacement assay
Type: binding
condition: compound at 10 μM
measured_quantity: inhibition at 10 µM (%)

Cc1cc2c(N3CCN(C)c4cc(-c5cnn(C)c5)c(C#N)cc43)cc(OCCN3CCOCC3)cc2n(C)c1=O; 100
CCn1c(=O)c(C)cc2c(N3CCN(C)c4cc(-c5cnn(C)c5)c(C#N)cc43)cccc21; 98
Cc1cc2c(N3CCN(C)c4cc(-c5cnn(C)c5)ccc43)cccc2[nH]c1=O; 100

* * *

test_target: recombinant CREBBP bromodomain (Homo sapiens, UniProt Q92793)
Construct: recombinant CREBBP bromodomain obtained from BPS Bioscience, USA
test_summary: CBP TR-FRET displacement assay
condition: dose-response, read-out: IC50 (group A, B, C)
measured_quantity: IC50

COc1cc(N2CCN(C)c3cc(-c4cnn(C)c4)c(F)cc32)c2cc(C)c(=O)n(C)c2c1 [Example 30]; < 50 nM
CNC(=O)c1ccc(-c2cc3c(cc2C(F)F)N(c2cccc4c2cc(C)c(=O)n4C)CCC3)cn1 [Example 176]; < 50 nM

Query string: Given CNC(=O)c1ccc(-c2cc3c(cc2F)N(c2cc(OC)cc4c2cc(C)c(=O)n4C)CCN3C)cn1 [Example 31] , state its recorded IC50.
Result string: < 50 nM

Query string: // next record Cc1cc2c(N3CCN(C)c4cc(-c5cnn(C)c5)c(C#N)cc43)cc(OCC(=O)O)cc2n(C)c1=O [Example 71]
Result string: < 50 nM

* * *

test_target: recombinant P300 bromodomain (Homo sapiens)
Construct: recombinant P300 bromodomain obtained from BPS Bioscience, USA
Sequence (Q09472 1049-1156 limits assumed): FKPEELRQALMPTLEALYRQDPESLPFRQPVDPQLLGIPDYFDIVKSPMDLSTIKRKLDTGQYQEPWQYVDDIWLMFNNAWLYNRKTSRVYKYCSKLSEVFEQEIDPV
test_summary: P300 TR-FRET displacement assay
condition: dose-response, read-out: IC50 (group A, B, C)
measured_quantity: IC50

For orientation, consider the following solved cases.
COc1cc(N2CCN(C)c3cc(-c4ccnn4C)c(C#N)cc32)c2cc(C)c(=O)n(C)c2c1; < 25 nM
Cc1cc2c(N3CCN(C)c4cc(-c5cnn(C)c5)c(C#N)cc43)cc(OC3COC3)cc2n(C)c1=O; 25 to 50 nM
Cc1cc2c(N3CCN(C)c4cc(-c5cnn(C)c5)c(C#N)cc43)cc(OCC(=O)O)cc2n(C)c1=O; < 25 nM
COc1cc(N2CCN(C)c3cc(C4=CCN(C)CC4)c(C#N)cc32)c2cc(C)c(=O)n(C)c2c1; > 50000 nM

Query string: Given "Cc1cc2c(N3CCCc4cc(-c5cnn(C)c5)c(C(F)F)cc43)cc(N3CCOCC3)cc2n(C)c1=O" , state its recorded IC50.
Result string: < 25 nM

Query string: // next record Cc1cc2c(N3CCN(C)c4cc(-c5cnn(C)c5)c(C#N)cc43)cc(OCC3CCCN(C)C3)cc2n(C)c1=O (single isomer, unassigned) [Example 247]
Result string: < 25 nM

Query string: // next record "COc1cc(N2CCN(C)c3cc(-c4cnn(C)c4)c(S(=O)(=O)NC(C)=O)cc32)c2cc(C)c(=O)n(C)c2c1"
Result string: < 25 nM

* * *

IC50 listing for selected compounds.
test_target: recombinant CREBBP bromodomain (Homo sapiens)
Construct: recombinant CREBBP bromodomain obtained from BPS Bioscience, USA
test_summary: CBP TR-FRET displacement assay
condition: dose-response, read-out: IC50 (group A, B, C)

Cc1cc2c(N3CCN(C)c4cc(-c5cnn(C)c5)ncc43)cc(OC3CCOCC3)cc2n(C)c1=O; < 50 nM
Cc1cc2c(N3CCCc4cc(-c5cnn(C)c5)c(C(F)F)cc43)cc(N3CC[C@@H](O)C3)cc2n(C)c1=O; 51 to 100 nM

Query string: Given COc1cc(N2CCN(C)c3ccc([S+](C)[O-])cc32)c2cc(C)c(=O)n(C)c2c1 (single isomer, unassigned) [Example 250] , state its recorded IC50.
Result string: > 10 nM

Query string: // next record COc1cc2c(cc1-c1cnn(C)c1)CCCN2c1nc(N2CCC(S(N)(=O)=O)C2)cc2c1cc(C)c(=O)n2C (stereo not shown)
Result string: 51 to 100 nM

* * *

test_target: recombinant CREBBP bromodomain (Homo sapiens, UniProt Q92793)
Construct: recombinant CREBBP bromodomain obtained from BPS Bioscience, USA
test_summary: CBP TR-FRET displacement assay
condition: dose-response, read-out: IC50 (group A, B, C)
measured_quantity: IC50

CC(=O)N1CCN(c2cc3c(cc(C)c(=O)n3C)c(N3CCCc4cc(-c5cnn(C)c5)c(C(F)F)cc43)n2)CC1 [Example 200]; < 50 nM
CC(=O)N1CCN(c2cc3c(cc2C(F)F)N(c2cc(N4CCOCC4)cc4c2cc(C)c(=O)n4C)CCC3)CC1 [Example 174]; 51 to 100 nM

Query string: Can you look up IC50 on recombinant CREBBP bromodomain (Homo sapiens, UniProt Q92793) for Cc1cc2c(N3CCCc4cc(-c5cnn(C)c5)c(C(F)F)cc43)nc(N3CC(O)C(O)C3)cc2n(C)c1=O (stereo not shown) [Example 213] ?
Result string: < 50 nM

Query string: // next record COc1cc(N2CCN(C)c3cc(-c4cnn(C)c4)ncc32)c2cc(C)c(=O)n(C)c2c1 [Example 116]
Result string: 51 to 100 nM

* * *

IC50 listing for selected compounds.
test_target: recombinant CREBBP bromodomain (Homo sapiens)
Construct: recombinant CREBBP bromodomain obtained from BPS Bioscience, USA
test_summary: CBP TR-FRET displacement assay
condition: dose-response, read-out: IC50 (group A, B, C)

For orientation, consider the following solved cases.
Cc1cc2c(N3CCCc4cc(-c5cnn(C)c5)ncc43)cc(N3CCOCC3)cc2n(C)c1=O [Example 169]; < 50 nM
Cc1cc2c(N3CCN(C)c4cc(-c5cnn(C)c5)ncc43)cc(N3CC(C)OC(C)C3)cc2n(C)c1=O (stereo not drawn) [Example 132]; < 50 nM

Next, consider the following compound.
Query string: Given Cc1cc2c(N3CCN(C)c4ccc(C#N)cc43)cc(OCC(=O)O)cc2n(C)c1=O [Example 82] , state its recorded IC50.
Result string: 51 to 100 nM

* * *

test_target: recombinant CREBBP bromodomain (Homo sapiens, UniProt Q92793)
Construct: recombinant CREBBP bromodomain obtained from BPS Bioscience, USA
test_summary: CBP TR-FRET displacement assay
condition: dose-response, read-out: IC50 (group A, B, C)
measured_quantity: IC50

For orientation, consider the following solved cases.
Cc1cc2c(N3CCN(C)c4cc(-c5cnn(C)c5)c(C#N)cc43)cccc2[nH]c1=O; < 50 nM
Cc1cc2c(N3CCCc4ccc(C(F)F)cc43)nc(N3CCC(O)C3)cc2n(C)c1=O (stereo not drawn); > 10 nM
Cc1cc2c(N3CCN(C)c4cc(-c5cnn(C)c5)ncc43)cc(C3CCOCC3)cc2n(C)c1=O; 51 to 100 nM

Query string: Given "COc1cc(N2CCN(C)c3cc(-c4cnc(O)nc4)c(C#N)cc32)c2cc(C)c(=O)n(C)c2c1" , state its recorded IC50.
Result string: < 50 nM

Query string: // next record "COC(=O)c1cc2c(cc1-c1cnn(C)c1)N(C)CCN2c1cc(OC)cc2c1cc(C)c(=O)n2C"
Result string: < 50 nM

Query string: // next record Cc1cc2c(N3CCCc4cc(-c5cnn(C)c5)c(O)cc43)nc(N3CCC(O)C3)cc2n(C)c1=O (stereo not drawn)
Result string: < 50 nM
